target: CHO-hB2 cell membranes (Homo sapiens); construct: purchased Receptor Biology, Inc. (Baltimore, MD); host or cells: CHO-hB2 cells (membranes); experiment: [35S]GTPγS Binding Assay in CHO-hB2 Cell Membranes; assay type: biochemical; details: word part of the cell; effect on bradykinin-stimulated [35S]GTPγS binding
result.type: Functional Activity

- CCCCn1c(CC(=O)N(C)c2ccc(Cl)c(COc3cccc4ccc(C)nc34)c2Cl)ccc1C(=O)c1ccc(C#N)cc1: No effect
- Cc1ccc2cccc(OCc3c(C)ccc(N(C)C(=O)CCc4ccc(C(=O)c5ccncc5)n4C)c3C)c2n1: Antagonist
- CCn1c(CC(=O)N(C)c2ccc(Cl)c(COc3cccc4ccc(C)nc34)c2Cl)ccc1C(=O)c1ccc(C#N)cc1: Antagonist
- Cc1ccc2cccc(OCc3c(Cl)ccc(N(C)C(=O)Cc4ccc(C(=O)c5ccc(C#N)cc5)n4C)c3Cl)c2n1: Antagonist
- Cc1ccc2cccc(OCc3c(C)ccc(N(C)C(=O)CCc4ccc(C(=O)c5cccnc5)n4C)c3C)c2n1: Antagonist

stdin: Requested read-out: Functional Activity. Entry: `Cc1ccc2cccc(OCc3c(C)ccc(N(C)C(=O)CCc4ccc(C(=O)c5cccs5)n4C)c3C)c2n1`
stdout: Weak antagonist

stdin: I have this molecule here, `Cc1ccc2cccc(OCc3c(Cl)ccc(NC(=O)Cc4ccc(C(=O)c5ccc(C#N)cc5)n4C)c3Cl)c2n1` , and I need its recorded Functional Activity.
stdout: Weak antagonist

stdin: Fill blank: measured Functional Activity of the molecule `Cc1ccc2cccc(OCc3c(Cl)ccc(N(C)C(=O)Cc4ccc(C(=O)c5ccc(C#N)cc5)n4CCC(C)C)c3Cl)c2n1` is ____.
stdout: No effect

* * *

Measured pKi, listed per entry for reference.
target: human B2 bradykinin receptors (Homo sapiens); construct: purchased Receptor Biology, Inc. (Baltimore, MD); host or cells: CHO-K1 cells transfected with the human B2 receptor (membranes); assay: Bradykinin B2 (BK2) Receptor Binding Assay; settings: membranes of CHO-K1 cells transfected with human B2 bradykinin receptors; ~0.25 nM [3H]NPC17731; 60 min at 25°C
Please report pKi as the negative decimal logarithm of the molar concentration, giving only the number.

* Cc1ccc2cccc(OCc3c(Cl)ccc(N(C)C(=O)Cc4ccc(C(=O)c5ccc(Cl)nc5)n4C)c3Cl)c2n1 | 6.71

stdin: What does the data say about its pKi? Entry: `Cc1ccc2cccc(OCc3c(Cl)ccc(N(C)C(=O)Cc4ccc(C(=O)c5ccncc5)n4C)c3Cl)c2n1`
stdout: 6.40

stdin: Fill in: pKi of `Cc1ccc2cccc(OCc3c(Cl)ccc(N(C)C(=O)CCc4ccc(C(=O)c5cccnc5)n4C)c3Cl)c2n1` is ___
stdout: 7.82

stdin: Entry `Cc1ccc2cccc(OCc3c(Cl)ccc(N(C)C(=O)Cc4ccc(C(=O)C=Cc5ccccc5)n4C)c3Cl)c2n1` : reported pKi = ?
stdout: 5.42

stdin: Find the recorded pKi belonging to `Cc1ccc2cccc(OCc3c(Cl)ccc(N(C)C(=O)Cc4ccc(C(=O)C(C)(C)C)n4C)c3Cl)c2n1` and report it.
stdout: 5.77

stdin: Could you share which pKi value was measured for `Cc1ccc2cccc(OCc3c(Cl)ccc(N(C)C(=O)Cc4ccc(C(=O)c5ccsc5)n4C)c3Cl)c2n1` ?
stdout: 6.47

stdin: // query pKi value for entry `Cc1ccc2cccc(OCc3c(Cl)ccc(N(C)C(=O)Cc4ccc(C(=O)c5ccc(C#N)cc5)n4CCC(C)C)c3Cl)c2n1`
stdout: 7.36

stdin: Please report the recorded pKi for `C=CCN(C(=O)Cc1ccc(C(=O)c2ccc(C#N)cc2)n1C)c1ccc(Cl)c(COc2cccc3ccc(C)nc23)c1Cl` .
stdout: 6.29

* * *

# reported pKi; entries follow
molecular target: human B2 bradykinin receptors (Homo sapiens, UniProt P30411); construct: purchased Receptor Biology, Inc. (Baltimore, MD); host or cells: CHO-K1 cells transfected with the human B2 receptor (membranes); test: Bradykinin B2 (BK2) Receptor Binding Assay; conditions: membranes of CHO-K1 cells transfected with human B2 bradykinin receptors; ~0.25 nM [3H]NPC17731; 60 min at 25°C
Sequence (P30411 whole entry): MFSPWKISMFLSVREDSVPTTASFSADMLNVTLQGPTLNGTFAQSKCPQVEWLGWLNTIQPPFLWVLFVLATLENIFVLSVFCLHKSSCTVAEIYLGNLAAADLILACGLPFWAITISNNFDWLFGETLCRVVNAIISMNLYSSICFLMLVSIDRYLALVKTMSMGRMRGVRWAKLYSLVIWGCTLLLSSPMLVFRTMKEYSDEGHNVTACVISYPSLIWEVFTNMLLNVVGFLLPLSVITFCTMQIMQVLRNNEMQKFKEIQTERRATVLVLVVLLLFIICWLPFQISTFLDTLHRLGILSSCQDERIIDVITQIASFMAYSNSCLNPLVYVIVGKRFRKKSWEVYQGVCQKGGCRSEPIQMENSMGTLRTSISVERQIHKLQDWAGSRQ
pKi is defined as minus the log10 of a concentration measured in mol/L.

- CCOc1ccc(C(=O)c2ccc(CCC(=O)N(C)c3ccc(Cl)c(COc4cccc5ccc(C)nc45)c3Cl)n2C)cn1 [Compound 87]: 6.84
- COc1ccc(C(=O)c2ccc(CC(=O)Nc3ccc(Cl)c(COc4cccc5ccc(C)nc45)c3Cl)n2C)cc1 [Compound 119]: 4.85

stdin: Value lookup for pKi; key = Cc1ccc2cccc(OCc3c(C)ccc(N(C)C(=O)CCc4ccc(C(=O)c5cccnc5)n4C)c3C)c2n1 [Compound 84]
stdout: 6.52

* * *

Here, each record is paired with measured Ki data.
target: human B2 bradykinin receptors (Homo sapiens); construct: purchased Receptor Biology, Inc. (Baltimore, MD); host or cells: CHO-K1 cells transfected with the human B2 receptor (membranes); assay: Bradykinin B2 (BK2) Receptor Binding Assay; conditions: membranes of CHO-K1 cells transfected with human B2 bradykinin receptors; ~0.25 nM [3H]NPC17731; 60 min at 25°C
State just the number; it will be interpreted in nM.

Please review the following examples before continuing.
* Cc1ccc2cccc(OCc3c(Cl)ccc(N(C)C(=O)Cc4ccc(C(=O)c5ccc([S+](C)[O-])cc5)n4C)c3Cl)c2n1 (stereo not drawn) | 64
* Cc1ccc(C(=O)c2ccc(CC(=O)N(C)c3ccc(Cl)c(COc4cccc5ccc(C)nc45)c3Cl)n2C)cc1 | 356
* COC(=O)c1ccc(C(=O)c2ccc(CC(=O)N(C)c3ccc(Cl)c(COc4cccc5ccc(C)nc45)c3Cl)n2C)cc1 | 161
* Cc1ccc2cccc(OCc3c(Cl)ccc(N(C)C(=O)Cc4ccc(C(=O)c5cccs5)n4C)c3Cl)c2n1 | 393
* Cc1ccc2cccc(OCc3c(Cl)ccc(N(C)C(=O)Cc4ccc(C(=O)c5cccnc5)n4C)c3Cl)c2n1 | 1390

Next up:
stdin: # get_value(readout='Ki', item= `Cc1ccc2cccc(OCc3c(C)ccc(N(C)C(=O)Cc4ccc(C(=O)c5ccc(C#N)cc5)n4C)c3C)c2n1` )
stdout: 69
